FYI, the data here is from paper PMC12703733.

Record form. Attribute: viability at 24 h, 100 µM. Fill in for each entry.
type: cell-based; details: Cell viability (%)
Bridge positions count the residues as written; N and C are the ends. Square brackets hold non-standard residues; d marks the D form. Peptide text beside a SMILES is read from it. Pro(cis-4-guanidino) = NC(N)=N[C@@H]1CN[C@H](C(=O)O)C1; Phe(4-guanidino) = N=C(N)Nc1ccc(C[C@H](N)C(=O)O)cc1
Answers are plain numbers, in %.

In the examples that follow, each entry is paired with its recorded viability at 24 h, 100 µM.
Compound	Readout value
CC[C@H](C)[C@H](NC(=O)[C@H](CCCNC(=N)N)NC(=O)[C@H]1CCCCNC(=N)NCCCC[C@H](NC(=O)[C@H](Cc2ccccc2)NC(=O)[C@H](Cc2c[nH]c3ccccc23)NC(=O)[C@@H]2CCCN2C(=O)[C@@H](NC(=O)[C@@H](N)Cc2ccccc2)C(C)C)C(=O)N[C@@H](CCCCN)C(=O)N[C@@H](Cc2ccccc2)C(=O)N[C@H](CC(C)C)C(=O)N1)C(=O)N[C@@H](CC(C)C)C(N)=O [Peptide 12, FVPWF{KKFlk}RIL]	0
CC[C@H](C)[C@H](NC(=O)[C@H](CCCNC(=N)N)NC(=O)[C@H]1CCC(=O)NCCCC[C@H](NC(=O)[C@H](Cc2ccccc2)NC(=O)[C@H](Cc2c[nH]c3ccccc23)NC(=O)[C@@H]2C[C@H](NC(=N)N)CN2C(=O)[C@@H](NC(=O)[C@@H](N)Cc2ccccc2)C(C)C)C(=O)N[C@@H](CCCCN)C(=O)N[C@@H](Cc2ccccc2)C(=O)N[C@H](CC(C)C)C(=O)N1)C(=O)N[C@@H](CC(C)C)C(N)=O [Peptide 7, FV(4-guanidino)PWF[KKFle]RIL] (H-FV[Pro(cis-4-guanidino)]WFKKF[dL][dE]RIL-NH2; lactam 6-10)	4

Kindly consider the entry below.
According to the records, this compound CC[C@H](C)[C@H](NC(=O)[C@H](CCCNC(=N)N)NC(=O)[C@H]1CCC(=O)NCCCC[C@H](NC(=O)[C@H](Cc2ccccc2)NC(=O)[C@H](Cc2c[nH]c3ccccc23)NC(=O)[C@@H]2CCCN2C(=O)[C@@H](NC(=O)[C@@H](N)Cc2ccc(NC(=N)N)cc2)C(C)C)C(=O)N[C@@H](CCCCN)C(=O)N[C@@H](Cc2ccccc2)C(=O)N[C@H](CC(C)C)C(=O)N1)C(=O)N[C@@H](CC(C)C)C(N)=O [Peptide 6, (p-guanidino)FVPWF[KKFle]RIL] (H-[Phe(4-guanidino)]VPWFKKF[dL][dE]RIL-NH2; lactam 6-10) displays viability at 24 h, 100 µM of 4

###

tested on: S. aureus ATCC 25923; test: microbe, parasite or virus in culture; assay type: cell-based; conditions: ATCC 25923
Bridge positions count the residues as written; N and C are the ends. Square brackets hold non-standard residues; d marks the D form. Peptide text beside a SMILES is read from it. * marks the point of attachment. Phe(4-guanidino) = N=C(N)Nc1ccc(C[C@H](N)C(=O)O)cc1; Butanoyl(4-guanidino) = N=C(N)NCCCC(=O)*; Propanoyl(3-guanidino) = N=C(N)NCCC(=O)*; X1 = N=C(N)N[C@@H](Cc1ccccc1)C(=O)*
Test readout: MIC (µM)
Give bare numbers, in µM.

Compound	Units text	Readout value
CC[C@H](C)[C@H](NC(=O)[C@H](CCCNC(=N)N)NC(=O)[C@H]1CCC(=O)NCCCC[C@H](NC(=O)[C@H](Cc2ccc(NC(=N)N)cc2)NC(=O)[C@H](Cc2c[nH]c3ccccc23)NC(=O)[C@@H]2CCCN2C(=O)[C@@H](NC(=O)[C@@H](N)Cc2ccccc2)C(C)C)C(=O)N[C@@H](CCCCN)C(=O)N[C@@H](Cc2ccccc2)C(=O)N[C@H](CC(C)C)C(=O)N1)C(=O)N[C@@H](CC(C)C)C(N)=O [Peptide 8, FVPW(p-guanidino)F[KKFle]RIL] (H-FVPW[Phe(4-guanidino)]KKF[dL][dE]RIL-NH2; lactam 6-10)	µM	25

Please look at the items below and tell me MIC for each one, in order.
1. CC[C@H](C)[C@H](NC(=O)[C@H](CCCNC(=N)N)NC(=O)[C@H]1CCC(=O)NCCCC[C@H](NC(=O)[C@H](Cc2ccccc2)NC(=O)[C@H](Cc2c[nH]c3ccccc23)NC(=O)[C@@H]2CCCN2C(=O)[C@@H](NC(=O)[C@H](Cc2ccccc2)NC(=O)CCCNC(=N)N)C(C)C)C(=O)N[C@@H](CCCCN)C(=O)N[C@@H](Cc2ccccc2)C(=O)N[C@H](CC(C)C)C(=O)N1)C(=O)N[C@@H](CC(C)C)C(N)=O [Peptide 5, guanidino-GABA-FVPWF[KKFle]RIL] ({Butanoyl(4-guanidino)}-FVPWFKKF[dL][dE]RIL-NH2; lactam 6-10)
2. CC[C@H](C)[C@H](NC(=O)[C@H](CCCNC(=N)N)NC(=O)[C@H]1CCC(=O)NCCCC[C@H](NC(=O)[C@H](Cc2ccccc2)NC(=O)[C@H](Cc2c[nH]c3ccccc23)NC(=O)[C@@H]2CCCN2C(=O)[C@@H](NC(=O)[C@H](Cc2ccccc2)NC(=N)N)C(C)C)C(=O)N[C@@H](CCCCN)C(=O)N[C@@H](Cc2ccccc2)C(=O)N[C@H](CC(C)C)C(=O)N1)C(=O)N[C@@H](CC(C)C)C(N)=O [Peptide 3, guanidino-FVPWF[KKFle]RIL] (X1-VPWFKKF[dL][dE]RIL-NH2; lactam 5-9)
3. CC[C@H](C)[C@H](NC(=O)[C@H](CCCNC(=N)N)NC(=O)[C@H]1CCC(=O)NCCCC[C@H](NC(=O)[C@H](Cc2ccccc2)NC(=O)[C@H](Cc2c[nH]c3ccccc23)NC(=O)[C@@H]2CCCN2C(=O)[C@@H](NC(=O)[C@H](Cc2ccccc2)NC(=O)CCNC(=N)N)C(C)C)C(=O)N[C@@H](CCCCN)C(=O)N[C@@H](Cc2ccccc2)C(=O)N[C@H](CC(C)C)C(=O)N1)C(=O)N[C@@H](CC(C)C)C(N)=O [Peptide 4, guanidino-βAla-FVPWF[KKFle]RIL] ({Propanoyl(3-guanidino)}-FVPWFKKF[dL][dE]RIL-NH2; lactam 6-10)

1. 3.12
2. 6.25
3. 3.12
